- TARGET: EGFR (UniProt P00533)
- Sequence (P00533 whole entry, looked up): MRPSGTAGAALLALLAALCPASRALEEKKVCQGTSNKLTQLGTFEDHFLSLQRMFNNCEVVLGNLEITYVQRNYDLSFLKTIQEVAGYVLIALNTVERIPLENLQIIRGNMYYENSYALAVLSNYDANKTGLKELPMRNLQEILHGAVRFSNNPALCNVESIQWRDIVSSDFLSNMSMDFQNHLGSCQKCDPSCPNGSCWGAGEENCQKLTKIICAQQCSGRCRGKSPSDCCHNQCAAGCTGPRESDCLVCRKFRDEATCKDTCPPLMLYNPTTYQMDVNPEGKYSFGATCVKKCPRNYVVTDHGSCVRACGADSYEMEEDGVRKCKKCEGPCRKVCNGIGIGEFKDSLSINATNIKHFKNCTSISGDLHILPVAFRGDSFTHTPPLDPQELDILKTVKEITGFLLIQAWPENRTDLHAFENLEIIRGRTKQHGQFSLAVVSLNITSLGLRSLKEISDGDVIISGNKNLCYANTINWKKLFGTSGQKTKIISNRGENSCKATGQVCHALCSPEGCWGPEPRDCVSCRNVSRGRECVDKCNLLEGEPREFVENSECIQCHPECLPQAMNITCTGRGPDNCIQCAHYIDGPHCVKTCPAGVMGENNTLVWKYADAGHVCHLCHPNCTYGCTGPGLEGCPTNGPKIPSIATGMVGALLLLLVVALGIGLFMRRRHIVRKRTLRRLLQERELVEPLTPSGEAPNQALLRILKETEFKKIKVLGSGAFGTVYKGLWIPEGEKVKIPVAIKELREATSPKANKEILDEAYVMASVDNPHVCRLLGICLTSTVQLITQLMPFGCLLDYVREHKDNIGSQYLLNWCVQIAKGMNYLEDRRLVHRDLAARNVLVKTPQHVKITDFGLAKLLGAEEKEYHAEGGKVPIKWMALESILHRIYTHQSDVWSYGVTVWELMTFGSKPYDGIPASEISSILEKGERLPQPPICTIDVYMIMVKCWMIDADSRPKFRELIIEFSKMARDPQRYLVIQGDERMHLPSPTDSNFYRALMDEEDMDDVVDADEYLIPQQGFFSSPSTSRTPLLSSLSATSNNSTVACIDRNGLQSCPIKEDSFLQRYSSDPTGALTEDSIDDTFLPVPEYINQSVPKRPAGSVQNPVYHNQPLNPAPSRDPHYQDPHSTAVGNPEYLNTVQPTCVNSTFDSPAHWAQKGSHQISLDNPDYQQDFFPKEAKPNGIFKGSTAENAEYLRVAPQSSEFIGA
Reported IC50 values are given for each entry in this list.

| STRUCTURE | TARGET | IC50 |
| --- | --- | --- |
| CCOc1cccc(-c2ccc3c(c2)NC(=O)/C3=C\c2[nH]c(C)cc2C)c1 | EGFR (UniProt P00533) | > 50 µM |
| COc1cccc(-c2cc(NC(=O)c3cc(C(C)(C)C)nn3Cc3ccccc3)ccc2OC)c1 | EGFR (UniProt P00533) | > 50 µM |
| CC(C)(C)c1cc(C(=O)Nc2cccnc2)n(Cc2ccccc2)n1 | EGFR (UniProt P00533) | > 100 µM |
| CC(C)(C)c1cc(C(=O)Nc2ccc3oc(=O)c4ccccc4c3c2)n(Cc2ccccc2)n1 | EGFR (UniProt P00533) | 43 µM |
| CC(C)(C)c1cc(C(=O)Nc2ccc(C(F)(F)F)cn2)n(Cc2ccccc2)n1 | EGFR (UniProt P00533) | 46.8 µM |
| CC(C)(C)c1cc(C(=O)Nc2cccc3c2C(=O)c2ccccc2-3)n(Cc2ccccc2)n1 | EGFR (UniProt P00533) | > 50 µM |
| CC(C)(C)c1cc(C(=O)Nc2ccccn2)n(Cc2ccccc2)n1 | EGFR (UniProt P00533) | > 100 µM |
| CC(C)(C)c1cc(C(=O)Nc2ccccc2C(F)(F)F)n(Cc2ccccc2)n1 | EGFR (UniProt P00533) | 46.8 µM |
| COc1ccc(-c2ccc3c(c2)NC(=O)/C3=C\c2cc3c([nH]2)CCCC3)cc1 | EGFR (UniProt P00533) | > 50 µM |
| COc1ccc(-c2ccc3c(c2)NC(=O)/C3=C\c2[nH]c(C)cc2C)cc1 | EGFR (UniProt P00533) | > 50 µM |
| CC(C)(C)c1cc(C(=O)c2nccc3ccccc23)n(Cc2ccccc2)n1 | EGFR (UniProt P00533) | 22.5 µM |

---

Reported IC50 values are given for each entry in this list.
- TARGET: EGFR (UniProt P00533)

| STRUCTURE | IC50 |
| --- | --- |
| Cc1cc(/C=C2/C(=O)Nc3ccccc32)c(C)c2c1[nH]c1ccccc12 | 7.03 µM |
| COc1ccc(-c2ccccc2)cc1NC(=O)c1cc(C(C)(C)C)nn1Cc1ccccc1 | > 50 µM |
| CC(C)(C)c1cc(C(=O)Nc2cccc(-c3ccccc3)c2)n(Cc2ccccc2)n1 | > 50 µM |
| O=C1Nc2cc(-c3ccccc3)ccc2/C1=C/c1cc2c([nH]1)CCCC2 | > 50 µM |
| Cc1cc(C)c(/C=C2\C(=O)Nc3cc(-c4ccccc4)ccc32)[nH]1 | > 50 µM |
| O=C1Nc2cc(-c3ccccc3)ccc2/C1=C/c1cnc[nH]1 | > 50 µM |
| CCOc1cccc(-c2ccc3c(c2)NC(=O)/C3=C\c2cc3c([nH]2)CCCC3)c1 | > 50 µM |
| COc1ccc(-c2ccc3c(c2)NC(=O)/C3=C\c2cnc[nH]2)cc1 | > 50 µM |
| CC(=O)Nc1ccc2c(c1)C(=O)c1cc(NC(=O)c3cc(C(C)(C)C)nn3Cc3ccccc3)ccc1-2 | 4.4 µM |
| COc1ccccc1-c1ccc2c(c1)NC(=O)/C2=C\c1[nH]c2c(c1C)CCCC2 | > 50 µM |
| CC(C)(C)c1cc(C(=O)Nc2ccc3c(c2)OCO3)n(Cc2ccccc2)n1 | 50.1 µM |
| Cc1cccnc1NC(=O)c1cc(C(C)(C)C)nn1Cc1ccccc1 | 53.4 µM |
| CCOc1cccc(-c2ccc3c(c2)NC(=O)/C3=C\c2ccc(C)s2)c1 | > 50 µM |
| Cc1cnc2ccccc2c1NC(=O)c1cc(C(C)(C)C)nn1Cc1ccccc1 | 21.2 µM |
| CC(C)(C)c1cc(C(=O)Nc2cccc(C(F)(F)F)c2)n(Cc2ccccc2)n1 | 53.4 µM |
| COc1cccc(-c2ccc3c(c2)NC(=O)/C3=C\c2cc(C(C)C)c(OC)c(C(C)C)c2)c1 | 13.7 µM |
| CC(C)(C)c1cc(C(=O)Nc2ccc(C(F)(F)F)cc2)n(Cc2ccccc2)n1 | 15.6 µM |
| Cc1ccnc(NC(=O)c2cc(C(C)(C)C)nn2Cc2ccccc2)c1 | 50.1 µM |
| CC(C)(C)c1cc(C(=O)Nc2cc3ccccc3cn2)n(Cc2ccccc2)n1 | > 100 µM |
| COc1ccc(-c2ccc3c(c2)NC(=O)/C3=C\c2[nH]c3c(c2C)CCCC3)cc1 | > 50 µM |

---

Reported pIC50 values are given for each entry in this list.
- TARGET: EGFR (UniProt P00533)
pIC50: −log10 of the molar value.

| STRUCTURE | TARGET | pIC50 |
| --- | --- | --- |
| CCn1c2ccccc2c2cc(NC(=O)c3cc(C(C)(C)C)nn3Cc3ccccc3)ccc21 | EGFR (UniProt P00533) | < 4.30 |
| COc1cccc(-c2ccc3c(c2)NC(=O)/C3=C\c2[nH]c3c(c2C)CCCC3)c1 | EGFR (UniProt P00533) | < 4.30 |
| CCOc1cccc(-c2ccc3c(c2)NC(=O)/C3=C\c2[nH]c(CC)cc2CC)c1 | EGFR (UniProt P00533) | < 4.30 |
| CC(C)(C)c1cc(C(=O)Nc2ccc(O)c(-c3cccc(-c4ccccc4)c3)c2)n(Cc2ccccc2)n1 | EGFR (UniProt P00533) | < 4.30 |
| COc1ccc(NC(=O)c2cc(C(C)(C)C)nn2Cc2ccccc2)c(OC)n1 | EGFR (UniProt P00533) | < 4.00 |
